RUN DESCRIPTION: self-splicing fitness, log relative to wild type (ln ratio); higher = more splicing; Tetrahymena group I intron in knt gene, E. coli kanamycin selection, DiMSum; sequences stand for … in CUCUCU…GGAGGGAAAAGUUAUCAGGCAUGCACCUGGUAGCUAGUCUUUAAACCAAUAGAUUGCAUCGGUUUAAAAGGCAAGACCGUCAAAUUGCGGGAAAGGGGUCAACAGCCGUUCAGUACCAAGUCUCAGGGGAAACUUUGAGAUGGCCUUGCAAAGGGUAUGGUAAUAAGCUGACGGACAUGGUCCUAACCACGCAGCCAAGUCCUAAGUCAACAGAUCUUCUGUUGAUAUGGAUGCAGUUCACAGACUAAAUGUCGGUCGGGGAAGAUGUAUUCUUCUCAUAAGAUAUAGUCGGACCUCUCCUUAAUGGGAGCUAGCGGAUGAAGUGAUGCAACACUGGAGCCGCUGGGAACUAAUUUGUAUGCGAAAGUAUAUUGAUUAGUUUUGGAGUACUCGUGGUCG;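 also: selection with 25 µg/mL kanamycin versus none on LB agar overnight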
ASSAY CONDITIONS: 30 °C
Decision: self-splicing fitness (ln) compared against -3; not below it gives fulfilled, below it gives not fulfilled.

SEQUENCE | CLASS ASSIGNMENT
ACCUAGCAAUAUUACGCGAC | fulfilled
CUUCAGCAAUAUUACGGACU | fulfilled
GGGUAGCAAUAUUACGUAUU | fulfilled
CCGCAGCAAUAUUACGUCUU | not fulfilled
UGCUAGCAAUAUUACGGUGA | fulfilled
CCCAAGCAAUAUUACGAAGC | not fulfilled
AGUAAGCAAUAUUACGACCG | fulfilled
CACAAGCAAUAUUACGCUGG | not fulfilled
UAAAAGCAAUAUUACGCAUA | fulfilled
AUGUAGCAAUAUUACGGACA | fulfilled
UACGAGCAAUAUUACGCUGU | fulfilled
GUCUAGCAAUAUUACGCGCA | fulfilled
GCACAGCAAUAUUACGGAUU | fulfilled
CAUAAGCAAUAUUACGUCAC | not fulfilled
AAUAAGCAAUAUUACGGCGA | fulfilled
AUGUAGCAAUAUUACGAUGC | fulfilled
UUUCAGCAAUAUUACGGCUG | not fulfilled
CGAAAGCAAUAUUACGUCAG | fulfilled
GGGAAGCAAUAUUACGAUUG | not fulfilled
UCGUAGCAAUAUUACGCCCG | fulfilled
CGCAAGCAAUAUUACGUCGA | fulfilled
CACCAGCAAUAUUACGCGCU | not fulfilled
UGAGAGCAAUAUUACGGCGG | not fulfilled
AAAAAGCAAUAUUACGCAAC | fulfilled
CCCAAGCAAUAUUACGUGAG | fulfilled
CAAGAGCAAUAUUACGGGAG | fulfilled
UAACAGCAAUAUUACGCCCU | fulfilled
GUCCAGCAAUAUUACGGAGU | fulfilled
UGCAAGCAAUAUUACGCUCG | not fulfilled
UUGUAGCAAUAUUACGUGCU | not fulfilled
UGUUAGCAAUAUUACGUGGG | not fulfilled
CAGAAGCAAUAUUACGCUAG | fulfilled
GUGAAGCAAUAUUACGACUU | fulfilled
AUUCAGCAAUAUUACGACAA | fulfilled
